# Tested on: NCI-H226 mesothelioma cell line
# test.details: Mesothelioma cell line proliferation assay, NCI-H226 (ATPlite)
# Type: cell-based
# assay.context: NCI-H226 cells, 6 days with compound, cell viability by ATPlite
EC50 by entry:

A selection of reference data follows.
- molecule: "CNS(=O)(=O)N1CCN2c3ccccc3N(c3ccc(C(F)(F)F)cc3)CC2C1 (single isomer, unassigned)"
  EC50: "< 1000 nM"
- molecule: "CC(=O)NCC1CN(c2ccc(C(F)(F)F)cc2)c2ccccc2O1 (single isomer, unassigned)"
  EC50: "< 1000 nM"
- molecule: "C=CC(=O)N1CCN2c3ccccc3N(c3ccc(C(F)(F)F)cc3)CC2C1 (single isomer, unassigned) [14-En2]"
  EC50: "< 1000 nM"
- molecule: "CC(=O)NCC1CN(c2ccc(C(F)(F)F)cc2)c2ccccc2N1 (single isomer, unassigned)"
  EC50: "< 1000 nM"
- molecule: "C=CC(=O)NCC1CN(c2ccc(C(F)(F)F)cc2)c2cccnc2O1 (stereo not shown)"
  EC50: "< 1000 nM"
- molecule: "C=CC(=O)N1CCN2c3nccnc3N(c3ccc(C(F)(F)F)cc3)CC2C1 (stereo not shown)"
  EC50: "< 1000 nM"
- molecule: "C=CC(=O)N1CCN2c3ccccc3N(c3ccc(C(F)(F)F)cc3)CC2C1 (stereo not shown) [compound 14]"
  EC50: "< 1000 nM"
- molecule: "CC(=O)N1CCN2c3ccccc3N(c3ccc(C(F)(F)F)cc3)CC2C1 (single isomer, unassigned)"
  EC50: "< 1000 nM"
- molecule: "C=CC(=O)NCC1CN(c2ccc(C(F)(F)F)cc2)c2cccnc2N1C (single isomer, unassigned)"
  EC50: "< 1000 nM"

Moving on to another molecule below.
-- ask Give the measured EC50 of Cc1ccc2c(n1)N1CCC(C(=O)O)CC1CN2c1ccc(C(F)(F)F)cc1 (stereo not shown) .
-- reply < 1000 nM
